- Test system: SK-MEL-5
- TEST: NCI tumour cell line growth inhibition, 48 h
Activity calls are given as the source filed them. No stated cut-off is given here; in the data, active = GI50 up to about 1.1 µM and inactive = higher.
RECORDED ENDPOINT: GI50

{"columns": ["COMPOUND", "TESTED ON", "OBSERVED MEASUREMENT"],
 "data": [
  ["COCCOC(=O)C1=C(O)c2ccccc2S(=O)(=O)N1C", "SK-MEL-5", "> 100 µM (inactive)"],
  ["CC(C)(C)[Si](C)(C)OCC1OC(n2ccc(=O)[nH]c2=O)C(O[Si](C)(C)C(C)(C)C)/C1=N/O (stereo not given)", "SK-MEL-5", "2.45 µM (inactive)"],
  ["Cc1cccc2c1C/C(=C1\\CCc3c(C)cccc31)C2=O", "SK-MEL-5", "> 100 µM (inactive)"],
  ["CC1(C)CC(C)(C)CC(O)(C2(O)CC(C)(C)CC(C)(C)C2)C1", "SK-MEL-5", "> 100 µM (inactive)"]
]}

INPUT: Request body: readout GI50, system SK-MEL-5, query O=c1c2nn[nH]c2nc2n1CC(c1ccccc1)S2 (stereo not given) . Return the value.
OUTPUT: > 100 µM (inactive)
